experimentalProtocol: MELAS cybrid and Rieske KO viability enhancers – cell-based, MELAS cybrids, Rieske KO mouse fibroblasts, CellTiter-Glo, primary screen (AID 1508586);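 also: test concentration not given here; z relative to plate mean and SD of compound and empty wells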
conditionSet: MELAS cybrid survival, low glucose, CellTiter-Glo 48 h; stronger effect = higher value
*1 amine or outer side, *2 acyl side, *3 side chain or, on linkers, in order; H or OH if unused. Where a SMILES comes first, the peptide text is derived from it. Bridges are numbered along the chain shown (N, C = ends). [ ]: non-standard residue; d: D form. The star is where a group is joined. ξ: configuration not given here. pTerphenylCO(4''-OnC5H11) = CCCCCOc1ccc(-c2ccc(-c3ccc(C(=O)*)cc3)cc2)cc1; ξOrn(4,5-diOH) = O=C(C(CC(O)C(O)N[*:3])N[*:1])[*:2]; ξhTyr(βξ-OH,γξ-OH) = NC(C(=O)O)C(O)C(O)c1ccc(O)cc1; ξPro(3ξ-OH,4ξ-Me) = CC1CNC(C(=O)O)C1O; Hyp = O=C(O)[CH]1C[CH](O)CN1
The following compounds are shown together with reported z-score values.
readout: z-score

{"compound": "CN(Cc1nc2ccc(Cl)cc2[nH]1)C(=O)c1n[nH]c2ccccc12", "valueReported": -0.529}
{"compound": "COc1cc2c(cc1-c1c(C)noc1C)ncc1[nH]c(=O)n(C(C)c3ccccn3)c12 (configuration not stated)", "valueReported": 0.365}
{"compound": "CNc1ncnc2c1ncn2C1OC(CO)C(O)C1O (configuration not stated)", "valueReported": -0.0172}
{"compound": "O=C(O)c1cnc(-c2ccccc2)[nH]1", "valueReported": -0.137}
{"compound": "COc1cc(C2Oc3ccc(C4Oc5cc(O)cc(O)c5C(=O)C4O)cc3OC2CO)ccc1O (configuration not stated)", "valueReported": -0.245}
{"compound": "CCCCNC(=O)[C@@H]1C[C@H](CN2CCOCC2)CN(Cc2ccccc2)C1", "valueReported": -0.071}
{"compound": "C[C@@H](OCc1ccccc1)[C@@H]1NC(=O)[C@H]2CN(C(=O)Oc3ccccc3)CCN2C1=O", "valueReported": -0.153}
{"compound": "CN(Cc1cnc2ccccc2n1)C(=O)Nc1n[nH]c(-c2ccco2)n1", "valueReported": -0.974}
{"compound": "CC1OC(OC2C(Oc3cc(O)c4c(c3)OC(c3ccc(O)cc3)CC4=O)OC(CO)C(O)C2O)C(O)C(O)C1O (configuration not stated)", "valueReported": -0.421}
{"compound": "CCOC(=O)O[C@]1(C(=O)COC(=O)CC)CC[C@H]2[C@@H]3CCC4=CC(=O)C=C[C@]4(C)[C@H]3[C@@H](O)C[C@@]21C", "valueReported": -0.565}
{"compound": "O=C(NCc1ccccn1)c1ccc(Oc2ccccc2)cc1", "valueReported": 0.509}
{"compound": "CN1CCC(CN(C)Cc2ccc(-c3nc(-c4cccnc4)cc(=O)[nH]3)cc2)CC1", "valueReported": 0.139}
{"compound": "Cc1ncsc1-c1ccn(CC(=O)Nc2ccnn2C2CCCCC2)n1", "valueReported": -0.424}
{"compound": "CCCCCOc1ccc(-c2ccc(-c3ccc(C(=O)NC4CC(O)C(O)NC(=O)C5C(O)C(C)CN5C(=O)C(C(C)O)NC(=O)C(C(O)C(O)c5ccc(O)cc5)NC(=O)C5CC(O)CN5C(=O)C(C(C)O)NC4=O)cc3)cc2)cc1 (stereo not drawn) ({pTerphenylCO(4''-OnC5H11)}-[ξOrn(4,5-diOH)]T[Hyp][ξhTyr(βξ-OH,γξ-OH)]T[ξPro(3ξ-OH,4ξ-Me)]; lactam 1-C; configuration not given here)", "valueReported": 0.0456}
{"compound": "Cc1cc(-c2cnn(C)c2)nc(N)n1", "valueReported": -0.132}
{"compound": "COc1cccc2c(=O)n(C(C)Cn3cccn3)cnc12 (configuration not stated)", "valueReported": -0.113}
{"compound": "NC(=O)N1CCC(CC(=O)N2CCC(C3c4ncc(Br)cc4CCc4cc(Cl)cc(Br)c43)CC2)CC1 (configuration not stated)", "valueReported": -0.458}
{"compound": "CCS(=O)(=O)c1ccc(OC)c(Nc2ncc(-c3cccc(C(C)=O)c3)o2)c1", "valueReported": 1.14}
{"compound": "OC1CO[C@H]2C(O)CO[C@H]12 (some centres not stated)", "valueReported": -0.254}
{"compound": "C=CCc1ccc(O)c(-c2cc(CC=C)ccc2O)c1", "valueReported": 0.173}
{"compound": "O=c1[nH]cnc2c1ncn2C1CCC(CO)O1 (configuration not stated)", "valueReported": -0.36}
{"compound": "CCc1cc(C(=O)N2CC(=O)N(Cc3ccc(OC)cc3)CC(OCc3ccncc3)C2)n(C)n1 (configuration not stated)", "valueReported": -0.128}
{"compound": "CC(=O)OCC(=O)[C@@]1(O)CC[C@H]2[C@@H]3CCC4=CC(=O)CC[C@]4(C)C3(F)[C@@H](O)C[C@@]21C (some centres not stated)", "valueReported": -0.171}
{"compound": "CCSCCNc1nccc(-c2cn(C)nc2C)n1", "valueReported": -0.242}
{"compound": "CC(=CC(=O)Nc1ccccc1C(=O)O)c1ccc2ccccc2c1", "valueReported": -0.436}
{"compound": "Cc1ccc(-n2cc(-c3nc4c(cnn4Cc4cccnc4)[nH]3)cn2)cc1", "valueReported": 0.697}
{"compound": "CC(=O)C1=C(O)C=C2Oc3c(C(C)=O)c(O)c(C)c(O)c3[C@]2(C)C1=O", "valueReported": -0.25}

Source listed as PubChem BioAssay.
